Below, each entry is listed alongside its reported pIC50.
studySystem: 15-PGDH/HPGD (Homo sapiens, UniProt P15428)
protocolDetails: hPGDH inhibitor screening biochemical assay
conditionSet: 10 nM enzyme, 15 μM Prostaglandin E2, 0.25 mM NAD, fluorescence ex/em 340/485 nm
pIC50: −log10 of the molar value.

// pIC50 lookup, compound = O[C@H](c1cnc2c(cnn2-c2ccc3nc(N4CCOCC4)nn3c2)c1)C1COC1 [Compound 64A] , result: 6.00 to 7.00

// pIC50 lookup, compound = CCCC(F)(F)[C@H](O)c1cnc2c(ccn2-c2cccc(-c3nnc[nH]3)c2)c1 , result: > 7.00

// pIC50 lookup, compound = CCOC[C@@H](O)c1cnc2c(cnn2-c2cccc(-c3nnc[nH]3)c2)c1 [Compound 23B] , result: > 7.00

// pIC50 lookup, compound = CN(C)C(=O)c1ccc(-n2ncc3cc([C@@H](O)COC4CCC4)cnc32)cc1 [Compound 80B] , result: ≤ 6.00

* * *

studySystem: 15-PGDH/HPGD (Homo sapiens)
Sequence (P15428 1-266): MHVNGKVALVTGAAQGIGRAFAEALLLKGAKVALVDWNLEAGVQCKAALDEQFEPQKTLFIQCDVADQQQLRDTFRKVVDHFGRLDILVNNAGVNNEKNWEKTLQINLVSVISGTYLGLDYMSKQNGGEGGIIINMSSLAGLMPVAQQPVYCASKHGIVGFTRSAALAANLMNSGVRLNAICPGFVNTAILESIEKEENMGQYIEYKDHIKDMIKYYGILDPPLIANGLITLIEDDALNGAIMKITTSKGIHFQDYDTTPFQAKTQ
protocolDetails: hPGDH inhibitor screening biochemical assay
conditionSet: 10 nM enzyme, 15 μM Prostaglandin E2, 0.25 mM NAD, fluorescence ex/em 340/485 nm
observable: IC50

Worked cases, answers included:
{"molecule": "CS(=O)(=O)c1ccc(-n2ncc3cc([C@@H](O)COC4CCC4)cnc32)cc1 [Compound 121A]", "studySystem": "15-PGDH/HPGD (Homo sapiens)", "recordedMeasurement": "100 to 1000 nM"}
{"molecule": "O[C@H](COC1CCC1)c1cnc2c(ccn2-c2cccc(-c3nnc[nH]3)c2)n1 [Compound 30A]", "studySystem": "15-PGDH/HPGD (Homo sapiens)", "recordedMeasurement": "< 100 nM"}
{"molecule": "O=C(O)CCc1ccc(-n2ncc3cc([C@@H](O)COC4CCC4)cnc32)cc1F [Compound 82A]", "studySystem": "15-PGDH/HPGD (Homo sapiens)", "recordedMeasurement": "< 100 nM"}

Log: 15-PGDH/HPGD (Homo sapiens), molecule COC1([C@@H](O)c2cnc3c(cnn3-c3cccc(-c4nnc[nH]4)c3)c2)CC1 [Compound 59A] , IC50 = < 100 nM

* * *

studySystem: 15-PGDH/HPGD (Homo sapiens, UniProt P15428)
protocolDetails: hPGDH inhibitor screening biochemical assay
conditionSet: 10 nM enzyme, 15 μM Prostaglandin E2, 0.25 mM NAD, fluorescence ex/em 340/485 nm
Below, each entry is listed alongside its reported IC50.

Worked cases, answers included:
{"compound": "O=C(O)c1ccc(-n2ncc3cc([C@@H](O)C4(OCC(F)F)CC4)cnc32)cc1 [Compound 72B]", "recordedMeasurement": "≥ 1000 nM"}
{"compound": "CC(C)(C)OC[C@@H](O)c1cnc2c(ccn2-c2cccc(-c3nnc[nH]3)c2)c1 [Compound 31B]", "recordedMeasurement": "< 100 nM"}
{"compound": "CC(C)OC[C@H](O)c1cnc2c(cnn2-c2ccc3nc(N4CCOCC4)nn3c2)c1 [Compound 60B]", "recordedMeasurement": "≥ 1000 nM"}

// IC50 lookup, compound = O=C(O)c1ccc(-n2ncc3cc([C@H](O)COCC4CC4)cnc32)cc1 [Compound 107B] , result: < 100 nM

// IC50 lookup, compound = CC(C)OC[C@@H](O)c1cnc2c(cnn2-c2ccc(C(=O)O)cc2)c1 [Compound 48B] , result: < 100 nM

// IC50 lookup, compound = CNC(=O)c1cccc(-n2ncc3cc([C@@H](O)COC4CCC4)cnc32)c1 [Compound 110A] , result: < 100 nM

// IC50 lookup, compound = O[C@H](c1cnc2c(cnn2-c2cccc(-c3nnc[nH]3)c2)c1)C1CC2CC2C1 (some centres unmarked) [Compound 50B] , result: < 100 nM

// IC50 lookup, compound = CC(C)C[C@H](O)[C@H](O)c1cnc2c(ccn2-c2cccc(-c3nnc[nH]3)c2)c1 [Compound 3C] , result: < 100 nM

* * *

studySystem: 15-PGDH/HPGD (Homo sapiens)
Sequence (P15428 1-266): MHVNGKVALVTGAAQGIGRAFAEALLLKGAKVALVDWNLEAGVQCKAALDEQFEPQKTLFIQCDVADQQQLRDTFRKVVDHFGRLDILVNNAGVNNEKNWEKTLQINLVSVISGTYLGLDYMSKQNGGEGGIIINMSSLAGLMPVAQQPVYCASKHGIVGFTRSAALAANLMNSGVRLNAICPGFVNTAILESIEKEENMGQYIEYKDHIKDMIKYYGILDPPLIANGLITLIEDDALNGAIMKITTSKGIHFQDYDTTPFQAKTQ
protocolDetails: hPGDH inhibitor screening biochemical assay
conditionSet: 10 nM enzyme, 15 μM Prostaglandin E2, 0.25 mM NAD, fluorescence ex/em 340/485 nm
Below, each entry is listed alongside its reported IC50.

Worked cases, answers included:
{"compound": "O[C@H](c1cnc2c(cnn2-c2cccc(-c3nnc[nH]3)c2)c1)C1(OCC(F)F)CC1 [Compound 73A]", "IC50": "< 100 nM"}
{"compound": "O[C@H](c1cnc2c(cnn2-c2cccc(-c3nnc[nH]3)c2)c1)C1C2CCCCC21 (some centres unmarked) [Compound 51A]", "IC50": "< 100 nM"}
{"compound": "CN(C)C(=O)c1cccc(-n2ncc3cc([C@H](O)COC4CCC4)cnc32)c1 [Compound 111B]", "IC50": "≥ 1000 nM"}
{"compound": "CC(C)OC[C@@H](O)c1cnc2c(ccn2-c2ccc(C(=O)O)cc2)n1 [Compound 49B]", "IC50": "< 100 nM"}

// IC50 lookup, compound = CC(C)CC[C@@H](O)c1cnc2c(ccn2-c2ccc(C(=O)O)cc2)n1 [Compound 40B] , result: < 100 nM

// IC50 lookup, compound = CC(C)(O)C[C@H](O)c1cnc2c(cnn2-c2cccc(-c3nnc[nH]3)c2)c1 [Compound 43B] , result: < 100 nM

// IC50 lookup, compound = CCOC1([C@H](O)c2cnc3c(cnn3-c3ccc4nc(N5CCOCC5)nn4c3)c2)CC1 [Compound 62A] , result: ≥ 1000 nM

// IC50 lookup, compound = CC(C)OC[C@@H](O)c1cnc2c(ccn2-c2cccc(-c3nnc[nH]3)c2)c1 [Compound 29B] , result: < 100 nM

// IC50 lookup, compound = CC(C)OC[C@@H](O)c1cnc2c(cnn2-c2ccc(CCC(=O)O)cc2)c1 [Compound 69A] , result: < 100 nM

// IC50 lookup, compound = C[C@@H](OC1CCC1)[C@H](O)c1cnc2c(cnn2-c2ccc(C(=O)O)cc2)c1 [Compound 108A] , result: < 100 nM

* * *

studySystem: 15-PGDH/HPGD (Homo sapiens)
Construct: purchased R&D System 5660-DH
protocolDetails: hPGDH inhibitor screening biochemical assay
conditionSet: 10 nM enzyme, 15 μM Prostaglandin E2, 0.25 mM NAD, fluorescence ex/em 340/485 nm
Text: A hydroxyprostaglandin dehydrogenase inhibition screening biochemical assay can be performed to assess the synthesized inhibitors provided herein. Provided herein is an exemplary biochemical assay for hPGDH inhibitor screening. […]
pIC50: −log10 of the molar value.
observable: pIC50

Worked cases, answers included:
{"compound": "CC(C)(C)OC[C@@H](O)c1cnc2c(cnn2-c2cccc(-c3nnc[nH]3)c2)c1 [Compound 32B]", "observable": "pIC50", "recordedMeasurement": "> 7.00"}
{"compound": "CS(=O)(=O)c1ccc(-n2ncc3cc([C@H](O)COC4CCC4)cnc32)cc1 [Compound 121B]", "observable": "pIC50", "recordedMeasurement": "≤ 6.00"}
{"compound": "O[C@H](c1cnc2c(cnn2-c2cccc(-c3nnc[nH]3)c2)c1)C1CCOCC1 [Compound 52A]", "observable": "pIC50", "recordedMeasurement": "> 7.00"}
{"compound": "CC(C)(O)[C@H](O)c1cnc2c(cnn2-c2cccc(-c3nnc[nH]3)c2)c1 [Compound 33A]", "observable": "pIC50", "recordedMeasurement": "6.00 to 7.00"}
{"compound": "O=C(O)c1ccc(-n2ncc3cc([C@H](O)COCC4CC4)ccc32)cc1 [Compound 114B]", "observable": "pIC50", "recordedMeasurement": "> 7.00"}

// pIC50 lookup, compound = O=C(O)c1ccc(-n2ncc3cc(C(O)C4CC(F)(F)C4)cnc32)cc1 (single isomer, unassigned) [Compound 45A] , result: > 7.00

// pIC50 lookup, compound = C[S+]([O-])c1ccc(-n2ncc3cc([C@H](O)COC4CCC4)cnc32)cc1 (some centres unmarked) [Compound 124B] , result: ≤ 6.00

// pIC50 lookup, compound = CCOC1([C@H](O)c2cnc3c(cnn3-c3cccc(-c4nnc[nH]4)c3)c2)CCC1 [Compound 83A] , result: 6.00 to 7.00
